Values from ChEMBL document CHEMBL5584236

# Tested on: Staphylococcus aureus
# Protocol details: Antibacterial activity against Staphylococcus aureus ATCC29213 assessed as reduction in microbial growth incubated for 22 to 24 hrs by CLSI based broth microdilution method
# Type: functional
# Measurement parameters: time 22-24 hrs
Assignment: determine reported MIC for the given compounds.
Reply numerically in µg/mL, unit not repeated.

Need MIC of "CCN(CC)CCCCOc1ccc(S(=O)(=O)c2ccc(OCC=C(C)C)cc2)cc1" , thanks. 50

Need MIC of "CCNCCCCOc1ccc(S(=O)(=O)c2ccc(OCC=C(C)C)cc2)cc1" , thanks. 25

Need MIC of "C=CCCCCCOc1ccc(S(=O)(=O)c2ccc(OCCCCNC(=N)N)cc2)cc1" , thanks. 1.56

Need MIC of "CC(C)=CCOc1ccc(S(=O)(=O)c2ccc(OCCCNC(=N)N)cc2)cc1" , thanks. 6.25

Need MIC of "COC(=O)[C@H](CCCNC(=N)N)NC(=O)[C@H](CCCNC(=N)N)NC(=O)COc1ccc(S(=O)(=O)c2ccc(OCC=C(C)C)cc2)cc1" , thanks. 25

Need MIC of "CC(C)=CCOc1ccc(S(=O)(=O)c2ccc(OCCOCCNC(=N)N)cc2)cc1" , thanks. 6.25

Need MIC of "CN[C@H](CC(C)C)C(=O)N[C@H]1C(=O)N[C@@H](CC(N)=O)C(=O)N[C@H]2C(=O)N[C@H]3C(=O)N[C@H](C(=O)N[C@H](C(=O)O)c4cc(O)cc(O)c4-c4cc3ccc4O)[C@H](O)c3ccc(c(Cl)c3)Oc3cc2cc(c3O[C@@H]2O[C@H](CO)[C@@H](O)[C@H](O)[C@H]2O[C@H]2C[C@](C)(N)[C@H](O)[C@H](C)O2)Oc2ccc(cc2Cl)[C@H]1O" , thanks. 0.78

Need MIC of "CC(C)Oc1ccc(S(=O)(=O)c2ccc(OCCCCNC(=N)N)cc2)cc1" , thanks. 12.5

----------
# Protocol details: Cytotoxicity against mouse NCTC clone 929 cells assessed reduction in cell viability incubated for 24 hrs by CCK-8 assay
# Type: toxicity, cell-based
# Measurement parameters: NCTC clone 929 (L929) cells
Experimental endpoint: CC50 at 24 h

Need CC50 at 24 h of "COC(=O)[C@H](CCCNC(=N)N)NC(=O)[C@H](CCCNC(=N)N)NC(=O)COc1ccc(S(=O)(=O)c2ccc(OC/C=C(/C)CCC=C(C)C)cc2)cc1" , thanks. > 100 µg/mL

----------
# Protocol details: Hemolytic activity against rabbit RBC incubated for 1 hr by multimode plate reader
# Format: toxicity, cell-based, Oryctolagus cuniculus, Erythrocyte
# Measurement parameters: rabbit red blood cells (erythrocytes)
Assignment: determine reported HC50 at 1 h for the given compounds.

Need HC50 at 1 h of "CC(C)=CCOc1ccc(S(=O)(=O)c2ccc(OCCCCN)cc2)cc1" , thanks. > 200 µg/mL

Need HC50 at 1 h of "CC(C)=CCC/C(C)=C\COc1ccc(S(=O)(=O)c2ccc(OCCCCNC(=N)N)cc2)cc1" , thanks. 144 µg/mL

Need HC50 at 1 h of "C=CCOc1ccc(S(=O)(=O)c2ccc(OCC(=O)OCC)cc2)cc1" , thanks. > 200 µg/mL

Need HC50 at 1 h of "COC(=O)[C@H](CCCNC(=N)N)NC(=O)[C@H](CCCNC(=N)N)NC(=O)[C@H](CCCNC(=N)N)NC(=O)COc1ccc(S(=O)(=O)c2ccc(OC/C=C(/C)CCC=C(C)C)cc2)cc1" , thanks. 165 µg/mL

Need HC50 at 1 h of "CCOC(=O)COc1ccc(S(=O)(=O)c2ccc(OC(C)C)cc2)cc1" , thanks. > 200 µg/mL

Need HC50 at 1 h of "CC(C)=CCOc1ccc(S(=O)(=O)c2ccc(OCCCCN(C)C)cc2)cc1" , thanks. 67.8 µg/mL

Need HC50 at 1 h of "COC(=O)[C@H](CCCNC(=N)N)NC(=O)[C@H](CCCNC(=N)N)NC(=O)COc1ccc(S(=O)(=O)c2ccc(OC/C=C(/C)CCC=C(C)C)cc2)cc1" , thanks. > 200 µg/mL

Need HC50 at 1 h of "C=CCOc1ccc(S(=O)(=O)c2ccc(OCC(=O)N[C@@H](CCCNC(=N)N)C(=O)OC)cc2)cc1" , thanks. > 200 µg/mL

Need HC50 at 1 h of "COC(=O)[C@H](CCCNC(=N)N)NC(=O)COc1ccc(S(=O)(=O)c2ccc(OCC=C(C)C)cc2)cc1" , thanks. 200 µg/mL

Need HC50 at 1 h of "CC(C)=CCOc1ccc(S(=O)(=O)c2ccc(OCCCCNC(=N)N)cc2)cc1" , thanks. > 200 µg/mL

Need HC50 at 1 h of "COC(=O)[C@H](CCCNC(=N)N)NC(=O)COc1ccc(S(=O)(=O)c2ccc(OC/C=C(/C)CCC=C(C)C)cc2)cc1" , thanks. > 200 µg/mL

Need HC50 at 1 h of "C=CCOc1ccc(S(=O)(=O)c2ccc(OCCCCNC(=N)N)cc2)cc1" , thanks. > 200 µg/mL

Need HC50 at 1 h of "CCOC(=O)COc1ccc(S(=O)(=O)c2ccc(OCC=C(C)C)cc2)cc1" , thanks. > 200 µg/mL

Need HC50 at 1 h of "CCNCCCCOc1ccc(S(=O)(=O)c2ccc(OCC=C(C)C)cc2)cc1" , thanks. 70.8 µg/mL

Need HC50 at 1 h of "CCOC(=O)COc1ccc(S(=O)(=O)c2ccc(OC/C=C(/C)CCC=C(C)C)cc2)cc1" , thanks. > 200 µg/mL

Need HC50 at 1 h of "COC(=O)[C@H](CCCNC(=N)N)NC(=O)[C@H](CCCNC(=N)N)NC(=O)[C@H](CCCNC(=N)N)NC(=O)COc1ccc(S(=O)(=O)c2ccc(OC(C)C)cc2)cc1" , thanks. > 200 µg/mL

Need HC50 at 1 h of "CC(C)=CCOc1ccc(S(=O)(=O)c2ccc(OCCCNC(=N)N)cc2)cc1" , thanks. > 200 µg/mL

Need HC50 at 1 h of "CC(C)Oc1ccc(S(=O)(=O)c2ccc(OCCCCNC(=N)N)cc2)cc1" , thanks. > 200 µg/mL

----------
# System: Escherichia coli
# Protocol details: Antibacterial activity against Escherichia coli ATCC25922 assessed as reduction in microbial growth incubated for 22 to 24 hrs by CLSI based broth microdilution method
# Assay type: functional
# Measurement parameters: time 22-24 hrs
Assignment: determine reported MIC for the given compounds.

Need MIC of "CC(C)=CCOc1ccc(S(=O)(=O)c2ccc(OCCCCNC(=N)N)cc2)cc1" , thanks. 12.5 mg/L

Need MIC of "COC(=O)[C@H](CCCNC(=N)N)NC(=O)COc1ccc(S(=O)(=O)c2ccc(OC/C=C(/C)CCC=C(C)C)cc2)cc1" , thanks. > 50 mg/L

Need MIC of "CCOC(=O)COc1ccc(S(=O)(=O)c2ccc(OC(C)C)cc2)cc1" , thanks. > 50 mg/L

Need MIC of "CC(C)Oc1ccc(S(=O)(=O)c2ccc(OCCCCNC(=N)N)cc2)cc1" , thanks. 50 mg/L

Need MIC of "C=CCOc1ccc(S(=O)(=O)c2ccc(OCC(=O)OCC)cc2)cc1" , thanks. > 50 mg/L

Need MIC of "COC(=O)[C@H](CCCNC(=N)N)NC(=O)COc1ccc(S(=O)(=O)c2ccc(OC(C)C)cc2)cc1" , thanks. > 50 mg/L

Need MIC of "CCN(CC)CCCCOc1ccc(S(=O)(=O)c2ccc(OCC=C(C)C)cc2)cc1" , thanks. > 50 mg/L

Need MIC of "CCOC(=O)COc1ccc(S(=O)(=O)c2ccc(OCC=C(C)C)cc2)cc1" , thanks. > 50 mg/L

Need MIC of "CC(C)=CCOc1ccc(S(=O)(=O)c2ccc(OCCCCN(C)C)cc2)cc1" , thanks. 50 mg/L

----------
Assignment: determine reported HC50 at 1 h for the given compounds.
# Protocol details: Hemolytic activity against rabbit RBC incubated for 1 hr by multimode plate reader
# Format: toxicity, cell-based, Oryctolagus cuniculus, Erythrocyte
# Measurement parameters: rabbit red blood cells (erythrocytes)

Need HC50 at 1 h of "CCN(CC)CCCCOc1ccc(S(=O)(=O)c2ccc(OCC=C(C)C)cc2)cc1" , thanks. 69.4 µg/mL

Need HC50 at 1 h of "CC(C)=CCOc1ccc(S(=O)(=O)c2ccc(OCCOCCNC(=N)N)cc2)cc1" , thanks. > 200 µg/mL

Need HC50 at 1 h of "COC(=O)[C@H](CCCNC(=N)N)NC(=O)[C@H](CCCNC(=N)N)NC(=O)COc1ccc(S(=O)(=O)c2ccc(OCC=C(C)C)cc2)cc1" , thanks. > 200 µg/mL

----------
# Protocol details: Cytotoxicity against mouse NCTC clone 929 cells assessed as viable cells at 25 ug/ml incubated for 24 hrs by CCK-8 assay relative to control
# Format: toxicity, cell-based
# Measurement parameters: NCTC clone 929 (L929) cells, at 25 µg/mL, read-out: Activity
Experimental endpoint: viability at 24 h, 25 ug/ml (%)
Reply numerically in %, unit not repeated.

Need viability at 24 h, 25 ug/ml of "COC(=O)[C@H](CCCNC(=N)N)NC(=O)[C@H](CCCNC(=N)N)NC(=O)COc1ccc(S(=O)(=O)c2ccc(OC/C=C(/C)CCC=C(C)C)cc2)cc1" , thanks. 87.6
